Recorded values, source ChEMBL document CHEMBL1833821.

Test system: Mus musculus
Assay: Anticonvulsant activity in ip dosed albino CF1 mouse assessed as protection against maximal electroshock-induced seizures in presence of 50 miliamperes of electric current
Format: functional
Reported ED50 values for the following compounds.
measurement.kind: ED50 (mg/kg)

{"compound": "CC(C)[C@@H](N)C(=O)NCCCc1ccccc1", "measurement.kind": "ED50", "unit": "mg/kg", "qualifier.operator": "=", "recorded.result": 16}
{"compound": "CC(C)[C@@H](N)C(=O)NCc1cccc(OC(F)(F)F)c1", "measurement.kind": "ED50", "unit": "mg/kg", "qualifier.operator": "=", "recorded.result": 7.1}
{"compound": "CC(C)[C@@H](N)C(=O)NCc1ccccc1OC(F)(F)F", "measurement.kind": "ED50", "unit": "mg/kg", "qualifier.operator": "=", "recorded.result": 9.2}
{"compound": "CC(C)[C@H](C(=O)NCc1ccccc1)N(C)C", "measurement.kind": "ED50", "unit": "mg/kg", "qualifier.operator": "=", "recorded.result": 30}
{"compound": "CC(=O)NC(C(=O)NCc1ccccc1)c1ccccc1 (racemic)", "measurement.kind": "ED50", "unit": "mg/kg", "qualifier.operator": "=", "recorded.result": 20}
{"compound": "CCC1(c2ccccc2)C(=O)NC(=O)NC1=O", "measurement.kind": "ED50", "unit": "mg/kg", "qualifier.operator": "=", "recorded.result": 22}
{"compound": "CC(C)[C@@H](N)C(=O)OCc1ccccc1", "measurement.kind": "ED50", "unit": "mg/kg", "qualifier.operator": ">", "recorded.result": 300}
{"compound": "CC(C)[C@@H](N)C(=O)NCCc1cccc(F)c1", "measurement.kind": "ED50", "unit": "mg/kg", "qualifier.operator": "=", "recorded.result": 20}

====

Assay: Neurotoxicity in po dosed albino Sprague-Dawley rat
Assay type: toxicity, organism-based
Details: in vivo
Entries and their TD50

{"molecule": "CC[C@H](C)C(=O)NCc1ccccc1", "TD50": "> 30 mg/kg"}
{"molecule": "CCCC(=O)NCc1ccccc1", "TD50": "> 30 mg/kg"}
{"molecule": "CC(C)[C@@H](N)C(=O)OCc1ccccc1", "TD50": "> 30 mg/kg"}
{"molecule": "CC(C)[C@@H](N)C(=O)NCC1CCCCC1", "TD50": "> 30 mg/kg"}
{"molecule": "CC(C)[C@@H](N)C(=O)NCCc1ccccc1", "TD50": "> 30 mg/kg"}
{"molecule": "CC(C)[C@@H](N)C(=O)NCCc1cccc(F)c1", "TD50": "> 500 mg/kg"}
{"molecule": "CC(C)[C@@H](N)C(=O)NCc1cccc(OC(F)(F)F)c1", "TD50": "43 mg/kg"}
{"molecule": "CC(C)[C@@H](N)C(=S)NCc1ccccc1", "TD50": "> 30 mg/kg"}
{"molecule": "CCC(C)C(=O)NCc1ccccc1 (racemic)", "TD50": "> 500 mg/kg"}
{"molecule": "CC(C)[C@@H](N)C(=O)NCCCCc1ccccc1", "TD50": "> 30 mg/kg"}
{"molecule": "O=C1NC(=O)C(c2ccccc2)(c2ccccc2)N1 [PHENYTOIN]", "TD50": "> 3000 mg/kg"}
{"molecule": "COC[C@@H](NC(C)=O)C(=O)NCc1ccccc1 [LACOSAMIDE]", "TD50": "> 500 mg/kg"}
{"molecule": "CC(C)[C@@H](N)C(=O)NCCCc1ccccc1", "TD50": "> 30 mg/kg"}
{"molecule": "CC[C@@H](O)C(=O)NCc1ccccc1", "TD50": "> 30 mg/kg"}
{"molecule": "CC(C)[C@@H](N)C(=O)NCc1ccccc1OC(F)(F)F", "TD50": "> 500 mg/kg"}
{"molecule": "CC(C)[C@@H](N)CNCc1ccccc1", "TD50": "> 30 mg/kg"}
{"molecule": "CC(C)[C@@H](N)C(=O)NCCc1ccccc1F", "TD50": "500 mg/kg"}
